molecular target: HLA-B*83:01; assay: IEDB peptide-MHC binding, purified MHC/competitive/fluorescence; filed as Kd, often an IC50 or EC50 that approximates it; bounds were set here for any values at or beyond the usual limits of such assays; conditions: source organism: dengue virus type 1
parameter.measured: Kd

• ATYGWNLVK = ≥ 5 µM

* * *

target: HLA-B*44:03; assay: IEDB peptide-MHC binding, purified MHC/competitive/radioactivity; filed as Kd, often an IC50 or EC50 that approximates it; bounds were set here for any values at or beyond the usual limits of such assays; conditions: source organism: Mammarenavirus guanaritoense
pKd: −log10 of the molar value.
parameter.measured: pKd

* FEEALNVALA | ≤ 4.15
